- Tested on: Toxoplasma gondii RH 2F1 tachyzoites (intracellular in HFF)
- Test: parasite survival relative to DMSO control; higher = less antiparasitic activity, active = 20 or less
- Run Parameters: 1 µM; 72 h
Outcomes: 1 (active), -1 (inactive)

>  <Molecule>
CCCC1(C2CC2)c2cc(Cl)ccc2NC(=O)N1C (configuration not stated)

>  <Assigned Class>
-1

$$$$
>  <Molecule>
COC(=O)Nc1nc2ccccc2[nH]1

>  <Assigned Class>
-1

$$$$
>  <Molecule>
O=C(CSc1nnc(Br)n1-c1ccc(C2CC2)c2ccccc12)Nc1ccc(C(=O)O)cc1Cl

>  <Assigned Class>
-1

$$$$
>  <Molecule>
COc1cc(C2C3=C(CC(C)(C)CC3=O)Nc3ccccc3N2C(C)=O)ccc1OCc1ccccc1 (configuration not stated)

>  <Assigned Class>
-1

$$$$
>  <Molecule>
O=C(Nc1ccccc1C(=O)O)c1cccc(Oc2ccccc2)c1

>  <Assigned Class>
-1

$$$$
>  <Molecule>
O=C(c1ccc(F)cc1)N1CCN2C(=O)c3ccccc3C12c1ccccc1 (configuration not stated)

>  <Assigned Class>
-1

$$$$
>  <Molecule>
O=C1c2cccc3cccc(c23)C(=O)N1CC1CO1 (configuration not stated)

>  <Assigned Class>
-1

$$$$
>  <Molecule>
Cc1cccc(C)c1C(=O)Nc1nc(-c2ccccn2)cc2ccccc12

>  <Assigned Class>
1

$$$$
>  <Molecule>
CC(C)Nc1nc2cc(Cl)c(Cl)cc2n1[C@H]1O[C@@H](CO)[C@H](O)[C@@H]1O

>  <Assigned Class>
-1

$$$$
>  <Molecule>
Cc1cc(C)n2nc(C(=O)NS(=O)(=O)c3c(C)cccc3OC(F)(F)F)nc2n1

>  <Assigned Class>
-1

$$$$
>  <Molecule>
Fc1cccc(Cl)c1C1CC(c2ccc(Cl)cc2)Nc2nnnn21 (configuration not stated)

>  <Assigned Class>
-1

$$$$
>  <Molecule>
CCc1c(O)nc2ccc(F)cc2c1OCC1CCC1

>  <Assigned Class>
-1

$$$$
>  <Molecule>
O=C(O)c1cc(-c2ccc(Br)cc2)nc2ccc(Cl)cc12

>  <Assigned Class>
-1

$$$$
>  <Molecule>
O=C(O)CSc1cc(NS(=O)(=O)c2cccc3cccnc23)c2ccccc2c1O

>  <Assigned Class>
-1

$$$$
>  <Molecule>
O=c1[nH]c(=O)n(Cc2cccc(Oc3ccccc3)c2)cc1Nc1ccccc1

>  <Assigned Class>
-1

$$$$
>  <Molecule>
c1ccc(Cn2c(-c3ccccn3)nc3ccccc32)cc1

>  <Assigned Class>
-1

$$$$
>  <Molecule>
CCc1cc(O)c(Oc2ccc(C(N)=O)cc2F)cc1F

>  <Assigned Class>
-1

$$$$
>  <Molecule>
NC(=O)c1nccn([C@@H]2O[C@H](CO)[C@@H](O)[C@H]2O)c1=O

>  <Assigned Class>
-1

$$$$
>  <Molecule>
O=[N+]([O-])c1ccc2c(CCc3c[nH]c4ccccc34)c[nH]c2c1

>  <Assigned Class>
-1

$$$$
>  <Molecule>
O=C(/C=C/n1cnc(-c2cc(C(F)(F)F)cc(C(F)(F)F)c2)n1)NNc1cnccn1

>  <Assigned Class>
-1

$$$$
>  <Molecule>
COc1c(NC(=O)[C@H]2CC[C@@H](COc3ccc([N+](=O)[O-])cc3)CC2)c(F)cc2c(=O)c(C(=O)O)cn(C3CC3)c12

>  <Assigned Class>
-1

$$$$
>  <Molecule>
CCc1cc(CCC(=O)Nc2ccccc2O)c(O)nc1C

>  <Assigned Class>
-1

$$$$
